Catalogue of TGI readings, one per entry.
Tested on: 786-0 renal
Experiment: NCI tumour cell line growth inhibition, 48 h
metric: TGI (µM)

compound: O=C(CCc1ccccc1)ON1C(=S)NC(c2ccccc2)(c2ccccc2)C1=S
result-unit: µM
sign-qualifier: >
recorded-value: 100
//
compound: N/C(=C\c1ccc(OCc2ccccc2)c(OCc2ccccc2)c1[N+](=O)[O-])C(=O)O
result-unit: µM
sign-qualifier: >
recorded-value: 100
//
compound: CN(CCCCN1CCCC1)CCCN(C)C(=O)Cc1ccc(Cl)c(Cl)c1
result-unit: µM
sign-qualifier: =
recorded-value: 26.1
//
compound: O=C(CN1CCN(CCCOc2c(-c3ccccc3)oc3ccccc3c2=O)CC1)Nc1ccc(Cl)cc1C(=O)c1ccccc1Cl
result-unit: µM
sign-qualifier: =
recorded-value: 19.4
//
compound: COc1cc(C)c(Cl)cc1C1=NN(c2ccc(S(N)(=O)=O)cc2)C(/C=C/c2ccccc2)C1 (stereo not given)
result-unit: µM
sign-qualifier: =
recorded-value: 11.9
